Tested on: PC3 cells
Experiment: PC3 cell proliferation, 2D activity detection
Assay type: cell-based, human
Conditions: Homo sapiens, PC-3; PC3, 2D, 72 h, class symbol; read-out: 2D IC50 against PC3 cells
pIC50: −log10 of the molar value.
PROPERTY_LABEL: pIC50

Exercise: Entry `COc1cc(C(=O)NC2CC3(CCN(C)CC3)C2)c(F)cc1Nc1ncc(C(F)(F)F)c(Oc2ccccc2N(C)S(C)(=O)=O)n1` has what pIC50?
Solution: < 5.70

Exercise: Entry COc1cc(C(=O)NC2CCC3(CC2)CCN(C)C3)c(F)cc1Nc1ncc(C(F)(F)F)c(Cc2cccc3c2C(=O)N(C)C3)n1 (stereo not drawn) has what pIC50?
Solution: < 5.70

Exercise: Entry `COc1cc(N2CCC3(CCN(C)CC3)C2=O)c(F)cc1Nc1ncc(C(F)(F)F)c(Oc2cccc3c2C(=O)N(C)C3)n1` has what pIC50?
Solution: < 5.70
